Values compiled from patent US20030083261A1.

Molecular target: T1, Mad2 protein (mitotic checkpoint protein Mad2, purified recombinant) (UniProt Q13257 1-205)
T1 construct: also called 15N-Mad2; free Mad2
T1 sequence (Q13257 whole entry): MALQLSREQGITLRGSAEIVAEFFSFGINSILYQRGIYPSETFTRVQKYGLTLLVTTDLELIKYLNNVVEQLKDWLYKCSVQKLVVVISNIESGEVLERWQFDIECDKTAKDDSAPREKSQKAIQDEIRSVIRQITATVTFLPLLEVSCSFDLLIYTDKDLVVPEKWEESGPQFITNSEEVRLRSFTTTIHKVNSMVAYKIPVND
Assay: tryptophan fluorescence titration of Mad2 with Cdc20P1

| BINDER | Kd (µM) |
| --- | --- |
| DVEEAKILRLSGKP (peptide, UniProt Q12834 124-137, looked up, also called Cdc20P1 peptide; 15N-Cdc20P1) [Cdc20P1 (14-amino acid peptide corresponding to residues 124-137 of Cdc20)] | 3.6 |
